- Target entity: Polyadenylate-binding protein 1 (Homo sapiens) (UniProt P11940)
- Sequence (P11940 whole entry, looked up): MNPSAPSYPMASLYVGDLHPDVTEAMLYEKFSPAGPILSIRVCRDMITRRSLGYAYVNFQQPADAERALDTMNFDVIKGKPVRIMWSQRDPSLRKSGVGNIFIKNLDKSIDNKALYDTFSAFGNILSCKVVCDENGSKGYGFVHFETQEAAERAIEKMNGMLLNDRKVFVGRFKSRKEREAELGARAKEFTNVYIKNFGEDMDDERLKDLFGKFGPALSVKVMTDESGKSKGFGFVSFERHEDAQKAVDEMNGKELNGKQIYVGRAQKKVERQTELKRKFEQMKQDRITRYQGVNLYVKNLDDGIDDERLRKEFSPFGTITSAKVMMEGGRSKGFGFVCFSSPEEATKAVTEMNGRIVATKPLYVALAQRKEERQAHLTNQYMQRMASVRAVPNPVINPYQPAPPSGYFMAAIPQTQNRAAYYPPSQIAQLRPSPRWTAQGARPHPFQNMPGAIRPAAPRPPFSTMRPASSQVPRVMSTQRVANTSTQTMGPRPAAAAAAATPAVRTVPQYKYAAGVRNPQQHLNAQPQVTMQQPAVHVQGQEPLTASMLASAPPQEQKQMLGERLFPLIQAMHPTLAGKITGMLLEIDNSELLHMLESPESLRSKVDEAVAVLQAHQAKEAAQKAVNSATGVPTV
- Test name: PABP poly(A) RNA binding inhibitors, primary screen, biochemical, fluorescence polarization, uHTS (AID 2014);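 note: calls also rest on retests at 20 µM and on dose response follow-up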
- Experimental conditions: at 35 µM
Hit rate of the full screen: of about 290,000 compounds, about 3,000 (1%) were called active. The rule behind the calls is not given here. For the sample, actives were picked, then their nearest neighbours and some compounds at random.
Outcomes: active, inactive

[[record]]
compound = "N#CC1=C(N)C(C#N)(C#N)[C@H](c2ccsc2)[C@H]2COCC=C12"
category = "inactive"

[[record]]
compound = "N/C(=N\\OS(=O)(=O)c1cccc([N+](=O)[O-])c1)c1ccncc1"
category = "active"

[[record]]
compound = "Cc1nnc(NC(=O)/C=C/c2ccco2)s1"
category = "inactive"

[[record]]
compound = "Clc1ccccc1CSc1nnc(-c2ccco2)c(-c2ccco2)n1"
category = "active"

[[record]]
compound = "O=c1nc2s/c(=C\\c3ccco3)c(=O)n2nc1Cc1ccccc1"
category = "active"

[[record]]
compound = "CCc1nnc(NC(=O)CCC(=O)N2CCN(c3cc(C)ccc3C)CC2)s1"
category = "inactive"

[[record]]
compound = "COc1ccc(CCNC(=O)c2ccccc2OCc2ccccc2)cc1"
category = "inactive"

[[record]]
compound = "CC(NC(=O)CCCC1CCCCC1)c1ccc(S(N)(=O)=O)cc1 (stereo unspecified)"
category = "inactive"

[[record]]
compound = "CCOC(=O)N1CC=C2C(C#N)=C(N)C(C#N)(C#N)[C@H](c3cccs3)[C@H]2C1"
category = "active"

[[record]]
compound = "COC(=O)c1sccc1NC(=O)c1ccc(Cl)cc1"
category = "inactive"

[[record]]
compound = "NC(=O)c1c(NC(=O)CSc2nnc(-c3ccco3)n2N)sc2c1CCCC2"
category = "active"

[[record]]
compound = "COc1ccccc1N(CC(=O)Nc1ccccc1C(=O)N1CCCC1)S(C)(=O)=O"
category = "inactive"

[[record]]
compound = "O=C(OCc1cc2ccccc2[nH]c1=O)c1cccnc1"
category = "inactive"

[[record]]
compound = "CCOC(=O)C1=C(C)NC(=S)NC1c1cccs1 (stereo unspecified)"
category = "inactive"

[[record]]
compound = "CCc1nnc(NC(=O)/C=C/c2ccc(C)o2)s1"
category = "active"

[[record]]
compound = "CC1CCN(S(=O)(=O)c2ccc3[nH]c(=O)ccc3c2)CC1"
category = "inactive"

[[record]]
compound = "Cc1ccc2cc(C)c(N3CCN(c4ccc(F)cc4)CC3)nc2c1"
category = "inactive"

[[record]]
compound = "O=C1CN(C(=O)c2cc(F)cc(F)c2)c2ccccc2N1"
category = "inactive"

[[record]]
compound = "O=c1[nH]c(SCc2ccccc2)nnc1-c1ccccc1"
category = "inactive"

[[record]]
compound = "Cc1ccc(C2Nc3cccc4cccc(c34)N2)cc1"
category = "inactive"

[[record]]
compound = "Cc1cc2c(=O)n(CC(=O)NCC(=O)Nc3ccc(C(C)C)cc3)cnc2s1"
category = "inactive"

[[record]]
compound = "COc1ccc(-c2cc(C(=O)N(C)Cc3ccc(OC)c(OC)c3OC)c3ccccc3n2)cc1OC"
category = "inactive"

[[record]]
compound = "CC(=O)Nc1ccc(NC(=O)CN2C(=O)COc3ccc(S(=O)(=O)N4CCCCC4)cc32)cc1"
category = "inactive"

[[record]]
compound = "Cc1nc(SCC(=O)NC2CCCC2)[nH]c(=O)c1C"
category = "inactive"

[[record]]
compound = "COc1ccc(NC(=O)c2cccc3c2C(=O)N(CC2CCCO2)C3)cc1OC (stereo unspecified)"
category = "inactive"

[[record]]
compound = "COc1ccc2oc(=O)cc(CN3CCOCC3)c2c1"
category = "inactive"

[[record]]
compound = "Cc1onc(C(=O)Nc2ccc3c(c2)OCO3)c1[N+](=O)[O-]"
category = "inactive"

[[record]]
compound = "CC(=O)NS(=O)(=O)c1ccc2c(c1)Cc1cc(S(=O)(=O)NC(C)=O)ccc1-2"
category = "inactive"

[[record]]
compound = "Cc1cccc2c1cnn2C(=O)CCC(=O)NC1CCCCC1"
category = "inactive"

[[record]]
compound = "O=C(O)c1cc(S(=O)(=O)N(Cc2ccccc2)c2cccc(C(F)(F)F)c2)ccc1Cl"
category = "inactive"

[[record]]
compound = "CCN(CC)c1ccc2oc(=O)c(C)nc2c1"
category = "active"

[[record]]
compound = "COc1ccc(C(=O)N(C)CC(O)c2ccccc2)cc1OC1CCN(C(C)=O)CC1 (stereo unspecified)"
category = "inactive"

[[record]]
compound = "Brc1ccc(CSc2ccc(-c3ccco3)nn2)cc1"
category = "inactive"

[[record]]
compound = "COCc1ccc(CN2CCC(Oc3ccc(C(=O)NCc4ccccn4)cc3)CC2)o1"
category = "inactive"

[[record]]
compound = "Cc1ccc(CNC(=O)Cc2cn(C)c3ccccc23)cc1"
category = "inactive"

[[record]]
compound = "CCOc1ccc(N(C)S(=O)(=O)c2cnc[nH]2)cc1"
category = "inactive"

[[record]]
compound = "NC(=O)c1c(NC(=O)c2ccccc2)sc2c1CCCC2"
category = "inactive"

[[record]]
compound = "CCCSc1nc(NCc2ccco2)c2c3c(sc2n1)COC(C)(CC)C3 (stereo unspecified)"
category = "inactive"

[[record]]
compound = "CCCC(=O)N1CCc2[nH]c3ccccc3c2C1"
category = "inactive"

[[record]]
compound = "Cc1ccc2[nH]c3c(c2c1)CN(C(=O)CN1CCN(c2ccccc2)CC1)CC3"
category = "active"

[[record]]
compound = "COc1ccc(CNC(=O)CN(Cc2ccccc2Cl)C(=O)c2csnn2)cc1"
category = "inactive"

[[record]]
compound = "Fc1cccc(Cl)c1CSc1ccc(-c2ccco2)nn1"
category = "inactive"

[[record]]
compound = "COc1ccc(C2NC(=O)c3ccccc3N2)cc1 (stereo unspecified)"
category = "inactive"

[[record]]
compound = "COc1ccc(C)cc1-n1nnnc1SCC(=O)c1cc(C)n(Cc2ccco2)c1C"
category = "active"

[[record]]
compound = "Cn1c(=O)n(Cc2ccco2)c(=N)c2c3c(sc21)CCCC3"
category = "inactive"

[[record]]
compound = "CN1CCc2c(sc3c2c(NCc2ccco2)nc2nnnn23)C1"
category = "active"


---

Listing: inhibition of selected molecules
- Target entity: Polyadenylate-binding protein 1 (Homo sapiens) (UniProt P11940)
- Test name: PABP poly(A) RNA binding inhibitors, primary screen, biochemical, fluorescence polarization, uHTS (AID 2014);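 note: calls also rest on retests at 20 µM and on dose response follow-up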
- Experimental conditions: at 35 µM, stronger effect = higher value
Screen size: about 290,000 compounds; about 3,000 (1%) were called active. What follows is part of a selection rich in actives, with near analogues and random picks from the rest.
Quantity name: inhibition

[[record]]
molecule = "CC1(C)CC(=O)C(C2c3ccccc3S(=O)(=O)c3ccccc32)C(=O)C1"
quantity_name = "inhibition"
experimental_result = "62.9% (active)"

[[record]]
molecule = "C[C@@H]1CC[C@@]2(OC1)O[C@H]1C[C@H]3[C@@H]4CC=C5C[C@@H](O)[C@H](O)C[C@]5(C)C4CC[C@]3(C)[C@H]1[C@@H]2C (stereo partly specified)"
quantity_name = "inhibition"
experimental_result = "7.2% (inactive)"

[[record]]
molecule = "O=C(CC12CC3CC(CC(C3)C1)C2)NCc1ccco1"
quantity_name = "inhibition"
experimental_result = "-13.1% (inactive)"

[[record]]
molecule = "Cc1cc2c(cc1C)[n+](C)cn2CC(O)COCC1CC=CCC1 (stereo unspecified)"
quantity_name = "inhibition"
experimental_result = "77.8% (active)"

[[record]]
molecule = "O=C(Nc1cccnc1Cl)c1cc(-c2ccccc2O)on1"
quantity_name = "inhibition"
experimental_result = "-6.2% (inactive)"

[[record]]
molecule = "COc1cccc(NC(=O)N2CCCC2C(=O)NC2CCCCC2)c1 (stereo unspecified)"
quantity_name = "inhibition"
experimental_result = "-0.6% (inactive)"

[[record]]
molecule = "COCCCNC(=O)Cc1ccc(-n2c(C)nc3cccnc32)cc1"
quantity_name = "inhibition"
experimental_result = "36% (inactive)"

[[record]]
molecule = "CC1(C)CC(=O)C=C(Nc2ccccc2)C1"
quantity_name = "inhibition"
experimental_result = "2.3% (inactive)"

[[record]]
molecule = "Brc1ccccc1CN1CCC(Cc2ccccc2)CC1"
quantity_name = "inhibition"
experimental_result = "0.9% (inactive)"

[[record]]
molecule = "CC1(c2ccc3ccccc3c2)NC(=O)N(CC(N)=O)C1=O (stereo unspecified)"
quantity_name = "inhibition"
experimental_result = "-4.5% (inactive)"

[[record]]
molecule = "Cc1cccc(C)c1N1C(=O)CN(Cc2ccccc2)C1=S"
quantity_name = "inhibition"
experimental_result = "8.2% (inactive)"


---

- Target entity: Polyadenylate-binding protein 1 (Homo sapiens) (UniProt P11940)
- Test name: PABP poly(A) RNA binding inhibitors, primary screen, biochemical, fluorescence polarization, uHTS (AID 2014);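 note: calls also rest on retests at 20 µM and on dose response follow-up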
- Experimental conditions: at 35 µM, stronger effect = higher value
Hit rate of the full screen: of about 290,000 compounds, about 3,000 (1%) were called active. The sample as a whole holds a higher share of actives than the screen did.
Listing: inhibition of selected compounds
Quantity name: inhibition (%)

[[record]]
compound = "CCCN(c1ccc(C)cc1)c1nc(=O)c2cccnc2s1"
quantity_name = "inhibition"
experimental_result = 71.4

[[record]]
compound = "Cn1c(-c2ccco2)nc2cc3ccccc3cc21"
quantity_name = "inhibition"
experimental_result = 4

[[record]]
compound = "CC(=O)N1CCSc2ccc(S(=O)(=O)N3CCC(C)CC3)cc21"
quantity_name = "inhibition"
experimental_result = 0

[[record]]
compound = "NC(=O)COc1ccccc1C(=O)NC12CC3CC(CC(C3)C1)C2"
quantity_name = "inhibition"
experimental_result = -0.3

[[record]]
compound = "Cc1cc(Cl)c2oc(C(=O)NC(C)c3ccncn3)c(C)c2c1 (stereo unspecified)"
quantity_name = "inhibition"
experimental_result = -10

[[record]]
compound = "CCn1nnnc1SCC(=O)Nc1ccc(N(C)C)cc1"
quantity_name = "inhibition"
experimental_result = 1.4

[[record]]
compound = "COc1ccc(CCn2c(-c3ccco3)nc3nc4ccccc4nc32)cc1OC"
quantity_name = "inhibition"
experimental_result = 12.4

[[record]]
compound = "Cc1cccc(OCC(O)Cn2c(N3CCCCC3)nc3c2c(=O)[nH]c(=O)n3C)c1 (stereo unspecified)"
quantity_name = "inhibition"
experimental_result = -7.3

[[record]]
compound = "c1coc(-c2nc3nc4ccccc4n3nc2-c2ccco2)c1"
quantity_name = "inhibition"
experimental_result = 63.7

[[record]]
compound = "O=C(CSc1ccc(-c2ccco2)nn1)Nc1cccc(F)c1"
quantity_name = "inhibition"
experimental_result = -7.4

[[record]]
compound = "CCOC(=O)N1CCN(Cc2nc3cc(NC(=O)CC)ccc3n2CC)CC1"
quantity_name = "inhibition"
experimental_result = 1.3

